- Test system: HEK-293T
- assay.explanation: Multiplex assay against HEK293T
- Format: toxicity, cell-based
- settings: human, 24 h, 1 µM, compound concentration 1 uM, replicate 1
Decision: Population Healthy Nuclei (%) >= 40% yields class 1, all other cases yield class 0.

[[record]]
molecule = "CCOC(=O)c1c(C)[nH]c2ccc3c(c12)CN1CCc2cc(OC)ccc2C1O3 (configuration not stated)"
group_label = "class 1"

[[record]]
molecule = "CCN1CCN(c2ccc(Nc3cc(N(C)C(=O)Nc4c(Cl)c(OC)cc(OC)c4Cl)ncn3)cc2)CC1 [INFIGRATINIB]"
group_label = "class 1"

[[record]]
molecule = "Cc1ccc2nc(NCCN)c3ncc(C)n3c2c1.O=C(O)C(F)(F)F.O=C(O)C(F)(F)F"
group_label = "class 1"

[[record]]
molecule = "CCN1CCN(Cc2ccc(Nc3ncc(F)c(-c4cc(F)c5nc(C)n(C(C)C)c5c4)n3)nc2)CC1.CS(=O)(=O)O"
group_label = "class 0"

[[record]]
molecule = "CN(C)C(=O)C(CCN1CCC(O)(c2ccc(Cl)cc2)CC1)(c1ccccc1)c1ccccc1.Cl [LOPERAMIDE HYDROCHLORIDE]"
group_label = "class 0"

[[record]]
molecule = "Cc1cc(C)c(S(=O)(=O)N(Cc2ccc(-c3cccc(S(C)(=O)=O)c3)cc2)Cc2ccc(C(F)(F)F)o2)c(C)c1"
group_label = "class 1"

[[record]]
molecule = "NC(=O)c1cccc(-c2cc(Nc3ccc(OC(F)(F)F)cc3)ncn2)c1"
group_label = "class 1"

[[record]]
molecule = "Cl.O=C(c1ccc(Nc2nccc(-c3cc4ccccc4s3)n2)cc1)N1CCC(N2CCCC2)CC1"
group_label = "class 1"

[[record]]
molecule = "CNc1cc(Oc2cc(C(=O)Nc3cc(N4CCN(C)CC4)cc(C(F)(F)F)c3)ccc2C)ncn1"
group_label = "class 0"

[[record]]
molecule = "CCn1cc(-c2ccnc3[nH]c(-c4cccc(CN(C)C)c4)cc23)c(-c2ccc(NC(=O)N(C)C)cc2)n1 [GSK-1070916]"
group_label = "class 1"

[[record]]
molecule = "O=C(Nc1ccc(-n2nc(-c3cccnc3)cc2C(F)(F)F)cn1)c1ccc(-c2ccccc2)c(F)c1 [BI 2049]"
group_label = "class 0"

[[record]]
molecule = "COc1ccc(-c2ccc3c(N4CCOCC4)nc(N4C[C@@H](C)O[C@@H](C)C4)nc3n2)cc1CO [Ku-0063794]"
group_label = "class 1"

[[record]]
molecule = "COc1ccc(S(=O)(=O)N(CCO)c2ccccc2CN(C)C/C=C/c2ccc(Cl)cc2)cc1.O=P(O)(O)O"
group_label = "class 0"

[[record]]
molecule = "O=C(Nc1cccnn1)N1CCC(=Cc2cccc(Oc3ccc(C(F)(F)F)cn3)c2)CC1"
group_label = "class 1"

[[record]]
molecule = "CCCn1c(=O)c2[nH]c(-c3cnn(Cc4cccc(C(F)(F)F)c4)c3)nc2n(CC)c1=O [GS 6201]"
group_label = "class 0"

[[record]]
molecule = "Cc1ccc(C(=O)Nc2cccc(C(F)(F)F)c2)cc1Nc1nc(-c2cccnc2)nc2c1cnn2C"
group_label = "class 0"

[[record]]
molecule = "COC(=N)c1nc2ccc3ncnc(Nc4ccc(OC)cc4F)c3c2s1"
group_label = "class 1"

[[record]]
molecule = "CCn1c(=O)c(-c2ccc(-c3cncs3)cc2Cl)cc2cnc(Nc3ccc(N4CCN(C)CC4)cc3)nc21"
group_label = "class 1"

[[record]]
molecule = "C=CCn1c(=O)c2cnc(Nc3ccc(N4CCN(C)CC4)cc3)nc2n1-c1cccc(C(C)(C)O)n1 [ADAVOSERTIB]"
group_label = "class 1"

[[record]]
molecule = "CCc1cccc(CC)c1NC(=O)c1nn(C)c2c1CCc1cnc(Nc3ccc(N4CCN(C)CC4)cc3OC)nc1-2"
group_label = "class 0"

[[record]]
molecule = "S=C(NCCCc1c[nH]cn1)NCCCN(Cc1ccc(Cl)c(Cl)c1)c1ccc(Br)cn1"
group_label = "class 0"

[[record]]
molecule = "CCc1cccc(CC)c1NC(=O)c1nn(C)c2c1CCc1cnc(Nc3ccc(C(=O)NC4CCN(C)CC4)cc3OC(F)(F)F)nc1-2"
group_label = "class 1"

[[record]]
molecule = "CCCS(=O)(=O)c1nc(NC2CC2)cc(-c2ccc3c(ccn3C3CC(C)(C)NC(C)(C)C3)c2)n1"
group_label = "class 0"

[[record]]
molecule = "O=C1NC(=O)C(c2cnc3ccccn23)=C1c1cn2c3c(cc(F)cc13)CN(C(=O)N1CCCCC1)CC2 [LY-2090314]"
group_label = "class 0"

[[record]]
molecule = "CNC(=O)c1ccc(Nc2nc(OC3CCCC3)c3c(-c4ccc5nc(C)oc5c4)c[nH]c3n2)c(OC)c1"
group_label = "class 0"

[[record]]
molecule = "C=C1/C(=C\\C=C2/CCC[C@]3(C)[C@@H]([C@H](C)/C=C/[C@H](C)C(C)C)CC[C@@H]23)C[C@@H](O)C[C@@H]1O [DOXERCALCIFEROL]"
group_label = "class 0"

[[record]]
molecule = "CN[C@@H]1C[C@H]2O[C@@](C)([C@@H]1OC)n1c3ccccc3c3c4c(c5c6ccccc6n2c5c31)C(=O)NC4 [STAUROSPORINE]"
group_label = "class 0"


* * *

# Population Pyknosed Nuclei (%) per record follows
- Test system: Fibroblast
- assay.explanation: Multiplex assay against human fibroblast
- Assay type: toxicity, cell-based
- settings: 48 h, 10 µM, compound concentration 10 uM, replicate 1
experimental.endpoint: Population Pyknosed Nuclei (%)

[[record]]
compound = "O=C1NC(=O)C(c2cnc3ccccn23)=C1c1cn2c3c(cc(F)cc13)CN(C(=O)N1CCCCC1)CC2"
experimental_endpoint = "Population Pyknosed Nuclei (%)"
result = "46%"

[[record]]
compound = "CCOc1cc(C(=O)N2CCC(N3CCN(C)CC3)CC2)ccc1Nc1ncc2c(n1)N(C1CCCC1)c1ccccc1C(=O)N2C"
experimental_endpoint = "Population Pyknosed Nuclei (%)"
result = "37%"

[[record]]
compound = "CCCS(=O)(=O)c1nc(NC2CC2)cc(-c2ccc3c(ccn3C3CC(C)(C)NC(C)(C)C3)c2)n1"
experimental_endpoint = "Population Pyknosed Nuclei (%)"
result = "15%"

[[record]]
compound = "Cc1cc(C)c(S(=O)(=O)N(Cc2ccc(-c3cccc(S(C)(=O)=O)c3)cc2)Cc2ccc(C(F)(F)F)o2)c(C)c1"
experimental_endpoint = "Population Pyknosed Nuclei (%)"
result = "2%"

[[record]]
compound = "Cl.Oc1ccc2c3c1O[C@H]1c4[nH]c5c(c4C[C@@]4(O)[C@@H](C2)N(CC2CC2)CC[C@]314)C[C@@]1(O)[C@H]2Cc3ccc(O)c4c3[C@@]1(CCN2CC1CC1)[C@H]5O4"
experimental_endpoint = "Population Pyknosed Nuclei (%)"
result = "12%"

[[record]]
compound = "Cc1ccc(C(=O)Nc2cccc(C(F)(F)F)c2)cc1Nc1nc(-c2cccnc2)nc2c1cnn2C"
experimental_endpoint = "Population Pyknosed Nuclei (%)"
result = "16%"

[[record]]
compound = "CCn1c(=O)c(-c2ccc(-c3cncs3)cc2Cl)cc2cnc(Nc3ccc(N4CCN(C)CC4)cc3)nc21"
experimental_endpoint = "Population Pyknosed Nuclei (%)"
result = "50%"

[[record]]
compound = "S=C(NCCCc1c[nH]cn1)NCCCN(Cc1ccc(Cl)c(Cl)c1)c1ccc(Br)cn1"
experimental_endpoint = "Population Pyknosed Nuclei (%)"
result = "40%"

[[record]]
compound = "O=C(Nc1ccc(-c2ccnc(Nc3ccc(N4CCOCC4)cc3)n2)cc1)[C@@H]1CCCN1"
experimental_endpoint = "Population Pyknosed Nuclei (%)"
result = "4%"

[[record]]
compound = "O=C1N/C(=N/c2ccccc2F)S/C1=C\\c1ccc(C(=O)O)cc1"
experimental_endpoint = "Population Pyknosed Nuclei (%)"
result = "9%"

[[record]]
compound = "CN1CCN(C(=O)C(C)(C)c2ccc(C(=O)Nc3cn4cc(-c5ccncc5)ccc4n3)cc2)CC1"
experimental_endpoint = "Population Pyknosed Nuclei (%)"
result = "15%"

[[record]]
compound = "COc1cc(N2CCN(C)CC2)ccc1Nc1ncc2c(n1)N(C)c1ccccc1C(=O)N2C"
experimental_endpoint = "Population Pyknosed Nuclei (%)"
result = "4%"

[[record]]
compound = "Cl.O=C(c1ccc(Nc2nccc(-c3cc4ccccc4s3)n2)cc1)N1CCC(N2CCCC2)CC1"
experimental_endpoint = "Population Pyknosed Nuclei (%)"
result = "19%"

[[record]]
compound = "Cl.O=c1c2cccn2c2ccccc2n1CCCN1CCC(c2ccc(Cl)cc2)CC1"
experimental_endpoint = "Population Pyknosed Nuclei (%)"
result = "22%"

[[record]]
compound = "O=C(Nc1ccc(Cl)cc1)Nc1cccc(-c2cccc(N3CCCC3)n2)c1"
experimental_endpoint = "Population Pyknosed Nuclei (%)"
result = "63%"

[[record]]
compound = "O=C(Nc1ccc(-n2nc(-c3cccnc3)cc2C(F)(F)F)cn1)c1ccc(-c2ccccc2)c(F)c1"
experimental_endpoint = "Population Pyknosed Nuclei (%)"
result = "18%"

[[record]]
compound = "C=C1/C(=C\\C=C2/CCC[C@]3(C)[C@@H]([C@H](C)/C=C/[C@H](C)C(C)C)CC[C@@H]23)C[C@@H](O)C[C@@H]1O"
experimental_endpoint = "Population Pyknosed Nuclei (%)"
result = "19%"

[[record]]
compound = "CCc1cccc(CC)c1NC(=O)c1nn(C)c2c1CCc1cnc(Nc3ccc(C(=O)NC4CCN(C)CC4)cc3OC(F)(F)F)nc1-2"
experimental_endpoint = "Population Pyknosed Nuclei (%)"
result = "18%"

[[record]]
compound = "CN1C2CCC1CC(OC(c1ccc(F)cc1)c1ccc(F)cc1)C2.Cl (stereo unspecified)"
experimental_endpoint = "Population Pyknosed Nuclei (%)"
result = "7%"

[[record]]
compound = "CN1CCC(=C2c3ccccc3CC(=O)c3sccc32)CC1.O=C(O)/C=C/C(=O)O [KETOTIFEN FUMARATE]"
experimental_endpoint = "Population Pyknosed Nuclei (%)"
result = "4%"

[[record]]
compound = "CCOC(=O)c1c(C)[nH]c2ccc3c(c12)CN1CCc2cc(OC)ccc2C1O3 (stereo unspecified)"
experimental_endpoint = "Population Pyknosed Nuclei (%)"
result = "12%"

